Where these numbers come from: PubChem BioAssay

- Test system: Chordin-like protein 2 (CHRDL2)
- test.description: CHRDL2 small-molecule binders, primary screen, biochemical, small-molecule microarray, 635 nm fluorescence (AID 1126);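 also: printed compound slides probed with Chrdl2 protein at 4 µg/mL for 1 h at 4 C; score merges 667 nm emission intensity with signal to noise over three replicate slides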
- condition.set: small-molecule microarray binding, fluorescence 635 nm; higher = more signal
Quick rule: composite z-score of at least -0.5 means YES, below that means NO.

Answered examples (5):
COC(=O)[C@@]1(Cc2ccc(OC)cc2)[C@H]2c3cc(C(=O)N4CCCC4)n(Cc4ccsc4Br)c3C[C@H]2CN1C(=O)c1ccccc1; NO
COc1ccc(C(=O)Nc2ccc(CN3C(=O)[C@@]4(O[C@@H](CCn5cc([C@H](O)c6ccccc6)nn5)[C@H]([Si](C)(C)c5ccc(OC)cc5)[C@H]4C)c4ccccc43)cc2)cc1; YES
COC(=O)[C@@]1(Cc2ccc(F)cc2)[C@@H]2[C@@H](CC(=O)[C@H]2CC(=O)C(=O)N(C)C)CN1C(=O)c1ccccc1; NO
CN1C(=O)C2C=CC(C(O)c3cc(C(F)(F)F)cc(C(F)(F)F)c3)N(N3CCCCC3)C2C1=O (stereo not given); NO
CCCC[C@H]1OB(O)C[C@H]2C1=C(COc1ccccc1)C[C@H]1C(=O)N(C)C(=O)[C@H]12; YES

[in] Can "COc1ccc([C@H]2OC[C@@H]3CC4(CC=CC4)C(=O)N32)cc1" be said to have composite z-score at or above -0.5?
[out] YES

[in] Can "CCCC#C[Si](O[C@H](CC)c1cn([C@H](CO)Cc2ccccc2)nn1)(C(C)C)C(C)C" be said to have composite z-score at or above -0.5?
[out] YES

[in] Can CCC(CC)C(O)C1C=CC2C(=O)N(C)C(=O)C2N1Nc1ccccc1 (stereo not given) be said to have composite z-score at or above -0.5?
[out] YES

[in] Can "O=C1O[C@H](c2ccccc2)[C@H](c2ccccc2)N2[C@H]1[C@@H](C(=O)NC[C@H](O)c1ccccc1)[C@]1(C(=O)Nc3ccccc31)[C@H]2c1ccc(OCCO)cc1" be said to have composite z-score at or above -0.5?
[out] YES

[in] Can C=CCC(OC(C)=O)[C@@H]1[C@@H](N(Cc2cccc3ccccc23)C(=O)c2ccc(-c3ccccc3)cc2)c2cc(OCCCO)ccc2N1C(=O)Cc1ccc(OC)cc1 (stereo not given in full) be said to have composite z-score at or above -0.5?
[out] YES

[in] Can "CN1C(=O)[C@]2(Cc3ccccc3)N=C(c3ccc(OCCCO)cc3)O[C@@H]2c2ccccc21" be said to have composite z-score at or above -0.5?
[out] YES

[in] Can O=C1OCC=C[C@H]2OC34C=CCN(CCN5CCOCC5)C(=O)[C@H]3N(CCCO)C(=O)[C@@H]4[C@@H]12 (stereo not given in full) be said to have composite z-score at or above -0.5?
[out] YES

[in] Can "COC(=O)[C@@]1(Cc2ccc(OC)cc2)[C@H]2c3cc(C(=O)N(C)C)n(Cc4cccc5ccccc45)c3C[C@H]2CN1C(=O)c1ccccc1" be said to have composite z-score at or above -0.5?
[out] YES

[in] Can "COC(=O)[C@@]1(Cc2ccc(F)cc2)[C@H]2c3cc(C(=O)N(C)C)n(CC4CC4)c3C[C@H]2CN1C(=O)c1ccccc1" be said to have composite z-score at or above -0.5?
[out] NO

====

- test.description: adipocyte viability effects, profiling panel, cell-based, 3T3-L1 adipocytes, calcein-AM fluorescence, 48 h, basal (AID 1163); also: test concentration not given here
- condition.set: 3T3-L1 adipocytes viability, higher = more signal
// returns false unless z-score is strictly below -0.5, in which case true

[in] A record lists C=CCC(OC(C)=O)[C@@H]1[C@@H](N(Cc2ccc(-c3cccc(C(F)(F)F)c3)o2)C(=O)c2ccc(-c3ccccc3)cc2)c2cc(OCCCO)ccc2N1C(=O)c1ccc(-c2ccccc2)cc1 (stereo partly specified) . Is its z-score below -0.5?
[out] false

[in] A record lists "COCCOC(=O)N1C(=O)[C@@]2(c3cc(C#CCCO)ccc31)[C@H](C(=O)Nc1nc3ccccc3s1)[C@H]1C(=O)O[C@H](c3ccccc3)[C@H](c3ccccc3)N1[C@@H]2c1ccc(OCCO)cc1" . Is its z-score below -0.5?
[out] false

[in] A record lists "CCCC[C@@H]1C[C@H]1[C@@H](NC(=O)c1ccco1)c1ccc(Cl)cc1" . Is its z-score below -0.5?
[out] true

[in] A record lists COc1ccc(C(=O)O[C@H]2CC[C@]3(C)C4=C(CCC3C2(C)C)[C@]2(C)CC[C@H]([C@H](C)CCCC(C)C)[C@@]2(C)CC4)cc1 (stereo partly specified) . Is its z-score below -0.5?
[out] false

====

- test.description: inhibitors of hydroxyurea-induced Chk1 phosphorylation, primary screen, imaging, HeLa, phospho-Chk1 antibody, percent positive cells (AID 1186)
- condition.set: hydroxyurea-induced phospho-Chk1 immunofluorescence imaging, higher = more signal
Quick rule: z-score of at least -0.07 means True, below that means False.

CC(C)(C)OC(=O)CC[C@]1(C(=O)O)N=C(c2ccc(OCCCO)cc2)O[C@H]1c1ccccc1N=[N+]=[N-]; True

[in] Can "C#CCN(CC1=CCCCC1)[C@H](c1ccccc1Br)[C@@H](O)Cc1ccccc1" be said to have z-score at or above -0.07?
[out] False

[in] Can O=C1OCC=C[C@H]2OC34C=CCN(CCN5CCOCC5)C(=O)[C@H]3N(CCCO)C(=O)[C@@H]4[C@@H]12 (stereo not given in full) be said to have z-score at or above -0.07?
[out] True

[in] Can "COc1cc2c(cc1O)C=[N+](Cc1cccc(OC(F)(F)F)c1)CC2" be said to have z-score at or above -0.07?
[out] True

====

- test.description: E. coli growth modulation, two-sided OD650, primary screen, E. coli filamentation project, strain DRC41, 24 h (AID 1093);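 also: MC1000 strain lacking acrAB efflux and sulA so SOS filamentation is blocked; test concentration not given here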
- condition.set: OD650, 24 h, higher = more signal, called active from +8 up or from −8 down
Calls of active or inactive are those of the source.
result.type: z-score

Consider the reported z-score for these compounds:
COCCOC(=O)N1C(=O)[C@@]2(c3cc(C#Cc4ccc(OC)cc4)ccc31)[C@H](C(N)=O)[C@H]1C(=O)O[C@H](c3ccccc3)[C@H](c3ccccc3)N1[C@@H]2c1ccccc1OCCO; 0.071 (inactive)
CCCC=C(CCC)[C@@H](NS(=O)(=O)c1cccs1)c1ccc(C(=O)OC)cc1; -0.0839 (inactive)
CN(C)C(=O)[C@]1(Cc2ccccc2N=[N+]=[N-])N=C(c2ccc(OCCCO)cc2)O[C@@H]1c1ccccc1; 0.677 (inactive)
O=C1O[C@@H](c2ccccc2)[C@@H](c2ccccc2)N2[C@@H](c3ccccc3OCCO)[C@]3(C(=O)Nc4ccc(C#CC5=CCCCC5)cc43)[C@@H](C(=O)Nc3nc4ccccc4s3)[C@H]12; 0.901 (inactive)
CCOC(=O)C[C@H]1[C@H](OC(=O)c2cc3ccccc3oc2=O)[C@@H](NC(=O)C2CCCCC2)c2cc(OCCCO)ccc2N1C(=O)c1ccccc1; 2.03 (inactive)

Just so you know, measured z-score for "COC(=O)c1c(CC[C@@H](CO)NC(=O)N2CCC[C@H]2Cn2cc(-c3ccccn3)nn2)oc(C(C)=O)c1C(=O)OC" came out at 1.25 (inactive)

Just so you know, measured z-score for COc1ccc(C(O)C2C=CC3C(=O)N(c4ccccc4)C(=O)C3N2Nc2ccc(C(C)C)cc2)cc1OCc1ccccc1 (configuration not stated) came out at -3.72 (inactive)

Just so you know, measured z-score for "CC(C)N1C(=O)[C@@]2(Cc3ccccc31)c1ccccc1C(=O)N(C1CCCCC1)[C@H]2c1ccc(CO)cc1" came out at -1.61 (inactive)

Just so you know, measured z-score for "COCCOC(=O)N1C(=O)[C@@]2(c3ccccc31)[C@H](c1ccccc1OCCO)N1[C@H](c3ccccc3)[C@H](c3ccccc3)OC(=O)[C@H]1[C@@H]2C(=O)Nc1nc2ccccc2s1" came out at 2.25 (inactive)

Just so you know, measured z-score for "CCOC(=O)C=Cc1cc([N+](=O)[O-])ccc1O" came out at -0.828 (inactive)

Just so you know, measured z-score for O=C(C1N=C(c2ccc(OCCCO)cc2)N(c2ccccc2)O1)N1CCOCC1 (configuration not stated) came out at 1.75 (inactive)

Just so you know, measured z-score for "O=C(NCc1ccccc1)[C@@]1(Cc2ccccc2)N=C(c2ccc(OCCCO)cc2)O[C@H]1c1ccccc1" came out at 0.842 (inactive)

Just so you know, measured z-score for "COCCOC(=O)N1C(=O)[C@@]2(c3cc(C#CC4=CCCCC4)ccc31)[C@H](C(=O)N1CCc3cc(OC)c(OC)cc3C1)[C@H]1C(=O)O[C@H](c3ccccc3)[C@H](c3ccccc3)N1[C@@H]2c1ccc(OCCO)cc1" came out at -0.217 (inactive)

Just so you know, measured z-score for "CN(C)C(=O)[C@]1(Cc2ccccc2CN=[N+]=[N-])N=C(c2ccc(OCCCO)cc2)O[C@@H]1c1ccccc1CN=[N+]=[N-]" came out at -0.255 (inactive)

Just so you know, measured z-score for O=C1OCCC=C[C@H]2OC34C=CCN(CCN5CCOCC5)C(=O)[C@H]3N(CCCCCCO)C(=O)[C@@H]4C12 (some centres not stated) came out at 0.15 (inactive)

Just so you know, measured z-score for O=C1NC(=O)C2C1C=CC(C(O)c1ccccc1)N2Nc1ccc(Cl)cc1Cl (configuration not stated) came out at -1.8 (inactive)
